Target: UniProt P11229
Sequence (P11229 1-460): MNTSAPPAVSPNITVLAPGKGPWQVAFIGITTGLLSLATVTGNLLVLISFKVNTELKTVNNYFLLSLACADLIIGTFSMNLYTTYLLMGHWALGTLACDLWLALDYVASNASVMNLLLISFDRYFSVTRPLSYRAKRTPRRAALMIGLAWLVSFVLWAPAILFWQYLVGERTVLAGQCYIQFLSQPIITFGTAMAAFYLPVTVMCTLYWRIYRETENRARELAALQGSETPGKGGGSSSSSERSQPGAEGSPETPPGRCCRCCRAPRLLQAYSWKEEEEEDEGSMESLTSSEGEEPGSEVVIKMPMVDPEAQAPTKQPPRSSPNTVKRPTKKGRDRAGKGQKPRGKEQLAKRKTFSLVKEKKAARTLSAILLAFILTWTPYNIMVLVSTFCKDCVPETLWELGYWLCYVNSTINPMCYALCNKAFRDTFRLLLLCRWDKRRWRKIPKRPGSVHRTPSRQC
Experiment: M1 FLIPR assay (PAM, intracellular calcium)
Assay type: cell-based
Conditions: potentiation of EC10-EC30 acetylcholine, values marked a: geometric mean of ≧7 determinations, read-out: M1 PAM Inflection Point (μM) Geometric mean of 2-6 determinations (unless otherwise indicated)
Would you mind telling me the reported EC50 of each entry?
Write the answer as a number in µM, unit excluded.

The compound listed as Cc1cnc(C(=O)N[C@@H]2CCOC[C@H]2O)cc1Cc1ccc(-n2cccn2)cc1 has a reported EC50 of 4.86

The compound listed as Cc1cnc(C(=O)N[C@H]2CCCC[C@@H]2O)cc1Cc1ccc(-n2cccn2)cc1 has a reported EC50 of 0.092

The compound listed as Cc1cnc(C(=O)NCC(=O)N(C)C)cc1Cc1ccc(-n2cccn2)cc1 has a reported EC50 of 8.03

The compound listed as O=C(N[C@H]1CCOC[C@@H]1O)c1cc(Cc2ccc(-n3cccn3)cc2)c(C(F)F)cn1 has a reported EC50 of 0.198

----------
Target: UniProtKB P11229
Sequence (P11229 1-460): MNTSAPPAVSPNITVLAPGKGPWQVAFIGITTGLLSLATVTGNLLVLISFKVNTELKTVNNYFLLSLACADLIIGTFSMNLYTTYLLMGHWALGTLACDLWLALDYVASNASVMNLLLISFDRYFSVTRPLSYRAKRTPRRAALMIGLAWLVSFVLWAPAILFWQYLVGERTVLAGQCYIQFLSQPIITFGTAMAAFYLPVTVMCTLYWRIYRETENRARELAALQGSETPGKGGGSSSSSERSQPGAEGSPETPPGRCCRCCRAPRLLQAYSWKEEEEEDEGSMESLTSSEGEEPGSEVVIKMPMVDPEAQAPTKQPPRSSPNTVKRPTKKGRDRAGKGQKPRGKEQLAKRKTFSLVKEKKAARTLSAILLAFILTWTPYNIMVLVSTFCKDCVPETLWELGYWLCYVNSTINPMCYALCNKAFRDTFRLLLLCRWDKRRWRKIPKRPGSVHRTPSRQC
Test: M1 FLIPR assay (PAM, intracellular calcium)
Format: cell-based
Details: potentiation of EC10-EC30 acetylcholine, values marked a: geometric mean of ≧7 determinations, read-out: M1 PAM Inflection Point (μM) Geometric mean of 2-6 determinations (unless otherwise indicated)
Protocol: This assay was designed to select and characterize compounds that affect the activity of human M1 muscarinic acetylcholine receptors (Similar M1 PAM FLIPR assays can be found, for example, at U.S. Pat. No. 8,664,234). […] The effect of test compounds on intracellular calcium was measured on an FLIPR Tetra (Molecular Devices) using the Fluo-8, AM calcium dye (Molecular Probes) with a red dye quenching agent (Sigma). […]
Would you mind telling me the reported EC50 of each entry?
Write the answer as a number in µM, unit excluded.

The compound listed as Cc1cnc(C(=O)NCC2CCO2)cc1Cc1ccc(-n2cccn2)cc1 (centres unmarked) has a reported EC50 of 7.21

The compound listed as Cc1cnc(NC(=O)c2cc(Cc3ccc(-n4cccn4)cc3)c(C)cn2)nc1 has a reported EC50 of 4.39

The compound listed as Cc1cnc(C(=O)NCC2(O)CCCC2)cc1Cc1ccc(-n2cccn2)cc1 has a reported EC50 of 1.55

The compound listed as COc1cnc(C(=O)N[C@H]2CCOC[C@@H]2O)cc1Cc1ccc(-c2coc(C)n2)cc1 has a reported EC50 of 0.086

The compound listed as COc1cnc(C(=O)N[C@H]2CCOC[C@@H]2O)cc1Cc1ccc(-n2cccn2)cc1 has a reported EC50 of 0.065

The compound listed as Cc1cnc(C(=O)N[C@H]2C[C@@](C)(O)C2)cc1Cc1ccc(-n2cccn2)cc1 has a reported EC50 of 1.12

The compound listed as COc1cnc(C(=O)N[C@H]2CCCC[C@@H]2O)cc1Cc1ccc(-c2cocn2)cc1 has a reported EC50 of 0.125

----------
Target: human M1 muscarinic acetylcholine receptors (Homo sapiens, UniProt P11229)
Experiment: M1 FLIPR assay (PAM, intracellular calcium)
Type: cell-based
Settings: potentiation of EC10-EC30 acetylcholine, values marked a: geometric mean of ≧7 determinations, read-out: M1 PAM Inflection Point (μM) Geometric mean of 2-6 determinations (unless otherwise indicated)
Would you mind telling me the reported EC50 of each entry?
Give your result as the value with the unit written after it.

The compound listed as Cc1cnc(C(=O)NC[C@H]2CCCO2)cc1Cc1ccc(-n2cccn2)cc1 has a reported EC50 of 9.25 µM

The compound listed as Cc1cnc(C(=O)NC[C@H](C)O)cc1Cc1ccc(-n2cccn2)cc1 has a reported EC50 of 6.65 µM

The compound listed as Cc1cnc(C(=O)NC2CCOCC2O)cc1Cc1ccc(-c2cncs2)cc1 (single isomer, unassigned; ent-2) [Example 5] has a reported EC50 of 0.18 µM

The compound listed as Cc1nnc(-c2ccc(Cc3cc(C(=O)NC4CCOCC4O)ncc3C)cc2)o1 (single isomer, unassigned) [Example 21] has a reported EC50 of 1.95 µM

----------
Molecular target: UniProtKB P11229
Assay: M1 FLIPR assay (PAM, intracellular calcium)
Format: cell-based
Conditions: potentiation of EC10-EC30 acetylcholine, values marked a: geometric mean of ≧7 determinations, read-out: M1 PAM Inflection Point (μM) Geometric mean of 2-6 determinations (unless otherwise indicated)
Description: This assay was designed to select and characterize compounds that affect the activity of human M1 muscarinic acetylcholine receptors (Similar M1 PAM FLIPR assays can be found, for example, at U.S. Pat. No. 8,664,234). […] The effect of test compounds on intracellular calcium was measured on an FLIPR Tetra (Molecular Devices) using the Fluo-8, AM calcium dye (Molecular Probes) with a red dye quenching agent (Sigma). […]
Counter-ions that a name gives are not always drawn.
Each record gets a class by EC50: lo (below 0.1 µM), med (0.1 µM to below 4 µM), hi (4 µM or more)

// query Sort Cc1cnc(C(=O)N[C@H]2CCCC[C@@H]2O)cc1C(F)c1ccc(-n2cccn2)cc1 (single isomer, unassigned) [Example 63] into one of the categories.
// result hi

// query Sort Cc1nnc(-c2ccc(Cc3cc(C(=O)NC4CCOCC4O)ncc3C)cc2)o1 (single isomer, unassigned) [Example 20] into one of the categories.
// result hi

// query Sort Cc1cnc(C(=O)N[C@H](CO)C(C)C)cc1Cc1ccc(-n2cccn2)cc1 into one of the categories.
// result med

// query Sort Cc1cnc(C(=O)NC2CCC(F)(F)C2)cc1Cc1ccc(-n2cccn2)cc1 (stereo not shown) into one of the categories.
// result med

// query Sort Cc1nc(-c2ccc(Cc3cc(C(=O)NC4CCOCC4O)ncc3C)cc2)co1 (single isomer, unassigned; (-)) [Example 10] into one of the categories.
// result hi

// query Sort Cc1cnc(C(=O)N[C@H]2CCOC[C@@H]2O)cc1Cc1ccc(-c2cn[nH]c2)cc1 into one of the categories.
// result med

// query Sort Cc1cnc(C(=O)NC[C@@H]2CCCO2)cc1Cc1ccc(-n2cccn2)cc1 [Example 16, formate salt] into one of the categories.
// result med

// query Sort Cc1cnc(C(=O)N[C@@H]2CCCCNC2=O)cc1Cc1ccc(-n2cccn2)cc1 into one of the categories.
// result med

// query Sort Cc1cnc(C(=O)NCC2CC2)cc1Cc1ccc(-n2cccn2)cc1 into one of the categories.
// result hi

// query Sort Cc1cnc(C(=O)N[C@H]2CCOC[C@@H]2O)cc1Cc1ccc(-n2cccn2)cc1 into one of the categories.
// result med

// query Sort COc1cnc(C(=O)N[C@H]2CCCC[C@@H]2O)cc1Cc1ccc(-n2cccn2)cc1 into one of the categories.
// result med

// query Sort Cc1cnc(C(=O)N[C@H]2CCOC[C@@H]2O)cc1Cc1ccc(-c2cscn2)cc1 into one of the categories.
// result lo

// query Sort COc1cnc(C(=O)N[C@H]2CCOC[C@@H]2O)cc1Cc1ccc(-c2cscn2)cc1 into one of the categories.
// result lo

// query Sort Cc1cnc(C(=O)N[C@H]2CCOC[C@@H]2O)cc1[C@H](F)c1ccc(-n2cccn2)cc1 into one of the categories.
// result lo

// query Sort Cc1nc(C(=O)N[C@H]2CCCC[C@@H]2O)cc(Cc2ccc(-n3cccn3)cc2)c1Cl into one of the categories.
// result med

// query Sort Cc1cnc(C(=O)NCC2CCCO2)cc1Cc1ccc(-n2cccn2)cc1 (stereo not shown) into one of the categories.
// result med
